Assay: in vitro
Conditions: human, uninfected 293T-ACE2 cells
readout_name: CC50 at 2 days

Take a look at these entries with their results.
CC1CN(C(c2ccccc2)(c2ccccc2)c2ccccc2)CCN1 (stereo not drawn)
> 3.67 µM
CCN(CC)CCNc1cc(-c2cccs2)nc2ccccc12
7.5 µM
Fc1nc(N2CCNCC2)c(F)c(Sc2ccc(Cl)cc2)c1F
5.32 µM
CCC(CC)COC(=O)[C@H](C)N[P@](=O)(OC[C@H]1O[C@@](C#N)(c2ccc3c(N)ncnn23)[C@H](O)[C@@H]1O)Oc1ccccc1 [Remdesivir, reference compound]
> 2 µM
CC(C)CCN1CCC(CNc2nc3ccccc3c(=O)[nH]2)CC1
> 6.6 µM

From here, focus on the item given below.
Data request, read-out CC50 at 2 days, for `NCCCc1cn(C(c2ccccc2)(c2ccccc2)c2ccccc2)cn1`
23.5 µM

* * *

CC50 by entry:
System: Vero E6 cells
Settings: read-out: SARS-CoV-2 CC50, uninfected, MTT

NCCCc1cn(C(c2ccccc2)(c2ccccc2)c2ccccc2)cn1
> 89.8 µM

Data request, read-out CC50, for `N=c1c(S(=O)(=O)c2ccc(Cl)cc2)cc2c(=O)n3ccccc3nc2n1C1CCCCC1`
> 20 µM

* * *

Tested on: SARS-CoV-2 USA-WA1/2020
Test: microbe, parasite or virus in culture
Type: cell-based
Conditions: Severe acute respiratory syndrome coronavirus 2, Vero C1008, 48 h, Vero E6 cells, MOI 0.025, two days; read-out: SARS-CoV-2 EC50
EC50 by entry:

Take a look at these entries with their results.
C=C(C)Cn1c(NCCCn2ccnc2)nc2c1c(=O)[nH]c(=O)n2C
> 20 µM
CCC(=C(c1ccccc1)c1ccc(OCCN(C)CCOc2ccc(C(=C(CC)c3ccccc3)c3ccccc3)cc2)cc1)c1ccccc1
> 20 µM
Cc1cc(-c2cc(CCN)ccc2CCN)c(C)cc1-c1ccccc1CCN
> 20 µM
CCN(CC)CCOc1ccc(C(O)(Cc2ccc(Cl)cc2)c2ccc(C)cc2)cc1 (centres unmarked) [Triparanol, reference compound]
0.811 µM
Cc1cc(-c2c(CCNC(=N)N)cccc2CCNC(=N)N)cc(C)c1-c1cc(CCCNC(=N)N)cc(CCCNC(=N)N)c1
> 20 µM

Data request, read-out EC50, for CC(CNc1nc2c(cnn2-c2ccccc2)c(=O)[nH]1)Cn1ccnc1 (centres unmarked)
> 20 µM

Data request, read-out EC50, for `CC(C)CCN1CCC(CNc2nc3ccccc3c(=O)[nH]2)CC1`
7.52 µM

Data request, read-out EC50, for `COc1ccc(-c2ccc(-c3ccc(O)c(CCN)c3)c(C)c2)c(CCN)c1`
> 20 µM

* * *

Test: in vitro
Details: African green monkey, uninfected Vero E6 cells
CC50 at 2 days by entry:

Take a look at these entries with their results.
Cc1cc(-c2cc(CCN)ccc2CCN)c(C)cc1-c1ccccc1CCN
> 20 µM
O=C1c2c(O)ccc(O)c2C(=O)c2c(NCCNCCO)ccc(NCCNCCO)c21 [Mitoxantrone, reference compound]
0.806 µM
Cc1cc(-c2c(CCNC(=N)N)cccc2CCNC(=N)N)cc(C)c1-c1cc(CCCNC(=N)N)cc(CCCNC(=N)N)c1
> 20 µM
C=C(C)Cn1c(NCCCn2ccnc2)nc2c1c(=O)[nH]c(=O)n2C
> 20 µM
CN(C)CCOc1ccc(C(=C(CCO)c2ccccc2)c2ccccc2)cc1
22.2 µM

Data request, read-out CC50 at 2 days, for `CCC(=C(c1ccccc1)c1ccc(OCCN(C)C)cc1)c1ccc(O)cc1`
2.7 µM

Data request, read-out CC50 at 2 days, for `CC(C)CCN1CCC(CNc2nc3ccccc3c(=O)[nH]2)CC1`
> 20 µM

Data request, read-out CC50 at 2 days, for `COc1ccc(-c2cc(C)c(-c3cc(CCN)c(OC)cc3CCN)cc2C)cc1CCN`
> 20 µM

Data request, read-out CC50 at 2 days, for `NCCCc1cn(C(c2ccccc2)(c2ccccc2)c2ccccc2)cn1`
> 90 µM

Data request, read-out CC50 at 2 days, for `CCC(=C(c1ccccc1)c1ccc(OCCN(C)CCOc2ccc(C(=C(CC)c3ccccc3)c3ccccc3)cc2)cc1)c1ccccc1`
> 20 µM

Data request, read-out CC50 at 2 days, for `Cc1cc(-c2c(CCN)cccc2CCN)cc(C)c1-c1cc(CCN)c(Oc2ccccc2)c(CCN)c1`
> 20 µM

All figures here come from paper PMC9784969.
